Assay: Quantitative High-Throughput drug screen in 47 multiple myeloma cell lines against the NCATS MIPE library collection: U266_ATCC cell viability assay (AID 1919864); note: nearly all actives have a fitted effect of over 35% in size
Conditions: U266 myeloma viability, CellTiter-Glo ATP luminescence, 48 h; series mostly up to 45.8 µM
Text: PI: Beverly A. Mock Ph.D. Laboratory of Cancer Biology and Genetics, Center for Cancer Research, National Cancer Institute, National Institute of Health, Bethesda, Maryland […] 5; Detector; 425V; Luminescence; Viewlux PerkinElmer. […] 1. […] Briefly, the corresponding myeloma cell lines were screened in 1,536-well plates with 500 cells, 5-uL per well for inhibition of cell viability (assessed by measuring ATP levels with CellTiterGlo). […]
Inconclusive results are not listed. Active and inactive are the calls of the source. Calls come from the whole dose curve; as a rule, active = well fitted cell-killing curve with a large enough effect; inconclusive = small, poorly fitted or top-dose-only effect, or effect the other way; inactive = no such curve, though single readings can be large or run the other way.
Outcomes: active, inactive

COMPOUND	CAT
O=C(O)c1ccccc1C(=O)Nc1ccc(-c2ccccc2)cc1	inactive
CCC(=O)O[C@]1(C(=O)CO)CC[C@H]2[C@@H]3CCC4=CC(=O)CC[C@]4(C)[C@@H]3CC[C@@]21C	inactive
O=C1c2c(O)cc(O)cc2O[C@H](c2cc(O)c(O)c(O)c2)[C@H]1O	active
O=C(Nc1ccccc1-c1cn2c(CN3CCNCC3)csc2n1)c1cnc2ccccc2n1	active
Clc1ccc(C(c2ccc(Cl)cc2)n2cc[n+](CC(OCc3ccc(Cl)cc3Cl)c3ccc(Cl)cc3Cl)c2)cc1 (stereo not given)	active
CC[C@]1(O)C[C@@H]2CN(CCc3c([nH]c4ccccc34)[C@@](C(=O)OC)(c3cc4c(cc3OC)N(C=O)[C@@H]3C45CCN4CC=C[C@](CC)([C@H]45)[C@@H](OC(C)=O)[C@]3(O)C(=O)OC)C2)C1 (stereo not given in full)	active
O=c1cc(N2CCOCC2)oc2c(-c3cccc4c3sc3ccccc34)cccc12	inactive
CO[C@H]1C[C@@H]2CC[C@@H](C)[C@@](O)(O2)C(=O)C(=O)N2CCCC[C@@H]2C(=O)O[C@H]([C@H](C)C[C@@H]2CC[C@H](OP(C)(C)=O)[C@H](OC)C2)CC(=O)[C@H](C)C=C(C)[C@@H](O)[C@@H](OC)C(=O)[C@H](C)C[C@H](C)C=CC=CC=C1C	inactive
C[C@]12CC[C@@H]3c4ccc(O)cc4CC[C@H]3[C@H]1C[C@@H](O)[C@H]2O	active
CC(C)(C)NC(=O)Nc1cccc(Nc2ncc(F)c(NC(C)(C)CO)n2)c1	inactive
CC(=O)O[C@]1(C(C)=O)CC[C@@H]2[C@@H]3C[C@H](C)C4=CC(=O)CC[C@]4(C)[C@H]3CC[C@@]21C	active
COc1ccc(-n2c(C)c([N+](=O)[O-])c3ccc(O)cc32)cc1	inactive
O=C1NC(=O)C(=Cc2ccc(-c3ccc(F)cc3)o2)S1	inactive
COCCOC(=O)C1=C(C)NC2=C(C(=O)CC(c3ccccc3OC)C2)C1c1cccc(O)c1 (stereo not given)	active
CC(=O)OC1C(C)OC(Oc2c(-c3ccc(O)cc3)oc3cc(O)cc(O)c3c2=O)C(O)C1OC(C)=O (stereo not given)	active
